Test system: MARK3
Test Context: concentration: 1 μM, replicates: in singlicate; n = 1;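 further: KINOMEscan kinase panel screen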
Assay Readout: %Inh (%)

{"columns": ["Compound", "Assay Readout", "Assay Value"],
 "data": [
  ["CC(C)N1CCC(n2cnc(-c3ccc(F)cc3)c2-c2ccnc(N)n2)CC1 [SB-223132]", "%Inh", 14],
  ["FC(F)(F)c1ccc(-c2nn3ncccc3c2-c2ccnc(Nc3cccc(C(F)(F)F)c3)n2)cc1 [GW828205]", "%Inh", 13],
  ["Cn1cc(-c2ccc3c(c2)CCN3C(=O)Cc2cccc(C(F)(F)F)c2)c2c(N)ncnc21 [GSK2606414]", "%Inh", 0],
  ["Cl.Cl.c1ccc(-c2cc3ccncc3cc2OC2CCNCC2)cc1 [GSK1122999]", "%Inh", 0],
  ["Cl.c1ccc(Cn2ccc3cc(Nc4ncnc5ccccc45)ccc32)cc1 [GW275568]", "%Inh", 1],
  ["Nc1nccc2scc(-c3ccc4c(c3)CCN4C(=O)Cc3cc(F)ccc3F)c12 [GSK2587663]", "%Inh", 4],
  ["COc1ccc(Nc2nccc(N3CCC(NC(=O)Nc4ccc5c(c4)OCO5)C3)n2)cc1 (stereo not drawn) [GSK1379745]", "%Inh", 13],
  ["CNc1nccc(-c2c(-c3ccc(F)cc3)ncn2C2CCN(C)CC2)n1 [SB-222903]", "%Inh", 18],
  ["CS(=O)(=O)CCNCc1nc(-c2ccc3ncnc(Nc4ccc(OCc5cccc(F)c5)c(Cl)c4)c3c2)cs1.Cl [GW583340]", "%Inh", 0],
  ["Cl.Cn1ccc(-c2cccc(Nc3ccnc4cc(-c5nccs5)ccc34)c2)n1 [GW525701]", "%Inh", 0],
  ["O=C(Nc1ccccc1F)NC1CCN(c2ccnc(Nc3ccc(F)cc3)n2)C1 (stereo not drawn) [GSK1379722]", "%Inh", 0],
  ["Fc1ccc(Nc2nccc(-c3c(-c4ccc(Cl)cc4)nn4ncccc34)n2)cc1F [GW829058]", "%Inh", 34],
  ["Nc1n[nH]c2nnc(-c3ccccc3)cc12 [SB-517389]", "%Inh", 0],
  ["Nc1nc(-c2ccccn2)c(-c2ccnc3ccccc23)s1 [GW548057]", "%Inh", 4],
  ["O=C(CCO)NCCn1ccc2ncnc(Nc3ccc(Oc4cccc(C(F)(F)F)c4)c(Cl)c3)c21", "%Inh", 0],
  ["Fc1cccc(COc2ccc(Nc3ncnc4sc(-c5ccc[nH]5)cc34)cc2Cl)c1 [GW707818]", "%Inh", 13],
  ["Cn1ccc2ncnc(Nc3ccc(Oc4cccc(Cl)c4)c(Cl)c3)c21", "%Inh", 0],
  ["Cn1ccc2ncnc(Oc3ccc(NC(=O)Nc4cccnc4)c(Cl)c3)c21", "%Inh", 0]
]}

====

Below, each entry is listed with its recorded %Inh.
System: AXL
Test Context: concentration: 1 μM, replicates: in singlicate; n = 1

{"columns": ["Molecule", "%Inh / %"],
 "data": [
  ["O=C(Nc1n[nH]c2nc(-c3ccco3)c(Br)cc12)c1ccc(CN2CCCC2)cc1.O=C(O)[C@H](O)[C@@H](O)C(=O)O", 51],
  ["O=C(CCO)NCCn1ccc2ncnc(Nc3ccc(Oc4cccc(C(F)(F)F)c4)c(Cl)c3)c21", 0],
  ["Cn1ccc2ncnc(Oc3ccc(NC(=O)Nc4cccnc4)c(Cl)c3)c21", 7],
  ["Cl.Cl.c1ccc(-c2cc3ccncc3cc2OC2CCNCC2)cc1", 27],
  ["FC(F)(F)c1cc(Nc2nccc(-c3c(-c4ccc(Cl)cc4)nn4ncccc34)n2)ccc1Cl", 0],
  ["Cl.O=S(=O)(c1cccc(F)c1)c1ccc(Nc2ncnc3cc(Br)sc23)cc1Cl", 0],
  ["Nc1n[nH]c2nnc(-c3ccccc3)cc12", 0],
  ["OCCOCCn1ccc2ncnc(Nc3ccc(Oc4cccc(Cl)c4)c(Cl)c3)c21", 0],
  ["CC(=O)Nc1n[nH]c2ncc(-c3ccccc3)cc12", 21],
  ["Cc1cc(N2CCC(NS(=O)(=O)c3ccc(F)cc3)CC2)nc(Nc2cccc(C#N)c2)n1.O=C(O)C(F)(F)F", 7],
  ["Cc1ccc(C)c(NC(=O)NCCNc2ccnc(Nc3ccc(F)cc3)n2)c1", 0],
  ["C[C@@H]1CCN(C(=O)CO)C[C@@H]1N(C)c1ncnc2[nH]ccc12", 0],
  ["CNc1nccc(-c2c(-c3ccc(F)cc3)ncn2CCCN2CCOCC2)n1", 14],
  ["O=C(Nc1ccccc1F)NC1CCN(c2ccnc(Nc3ccc(F)cc3)n2)C1 (stereo not drawn)", 0],
  ["CNc1nccc(-c2c(-c3ccc(F)cc3)ncn2C2CCN(C)CC2)n1", 0],
  ["Cn1cc(-c2ccc3c(c2)CCN3C(=O)Cc2cccc(C(F)(F)F)c2)c2c(N)ncnc21", 41],
  ["CCCc1ccc(S(=O)(=O)NC2CCN(c3ccnc(Nc4ccc(OC)cc4)n3)C2)cc1 (stereo not drawn)", 0],
  ["Cl.c1ccc(Cn2ncc3cc(Nc4ncnc5ccccc45)ccc32)cc1", 0],
  ["COC(=O)c1c(-c2ccccc2)c2cc(Cl)ccc2c(=O)n1Cc1ccc(S(C)(=O)=O)cc1", 0],
  ["Cl.c1ccc(Cn2ccc3cc(Nc4ncnc5ccccc45)ccc32)cc1", 0],
  ["COc1ccc(NC(=O)c2ccc(-c3cc(-c4nnc(C)o4)ccc3C)cc2)cc1", 0],
  ["COc1ccc(NC(=O)Nc2ccc(C)c(-c3ccc(C(=O)Nc4ccncc4)cc3)c2)cc1", 0],
  ["CS(=O)(=O)CCNCc1ccc(-c2ccc3ncnc(Nc4ccc(OCc5ccccc5)c(Cl)c4)c3c2)o1.Cl", 42],
  ["Cc1cccc(-c2nc(Nc3ccc4[nH]nnc4c3)c3ccccc3n2)n1", 0],
  ["COC(=O)c1cccc(NC(=O)NCCNc2ccnc(Nc3ccc(F)cc3)n2)c1", 5],
  ["Fc1ccc(-c2ncn(CCCNCc3ccccc3)c2-c2ccncc2)cc1", 18],
  ["Cl.Fc1ccccc1COc1ccc(Nc2ncnc3ccc(-c4nnc(C(F)(F)F)o4)cc23)cc1Cl", 0],
  ["Nc1nccc2scc(-c3ccc4c(c3)CCN4C(=O)Cc3cc(F)ccc3F)c12", 41],
  ["CCn1c(-c2ccncc2)nc2cnccc21", 24],
  ["Cl.Cn1ccc(-c2cccc(Nc3ccnc4cc(-c5nccs5)ccc34)c2)n1", 0],
  ["CC(C)(C)c1ccc(-n2cnc3c(N)ncnc32)cc1", 15],
  ["COc1cc2ncnc(Nc3ccc(OCc4ccccc4Br)c(Cl)c3)c2cc1OC.Cl", 19],
  ["O=C(Nc1ccccc1)Nc1ccc(Oc2ccc3nccn3n2)cc1", 0],
  ["Cc1ccc(O)cc1Nc1cc(C(F)(F)F)nc2ccc(-c3ccncc3)cc12", 0],
  ["Oc1ccc2ncnc(Nc3ccc(OCc4ccccc4)cc3)c2c1", 5],
  ["Cn1ccc2ncnc(Nc3ccc(Oc4cccc(Cl)c4)c(Cl)c3)c21", 0]
]}

FYI, the data here is from paper PMC5540273.
